Assayed System: von Hippel-Lindau disease tumor suppressor (Homo sapiens)
Sequence (P40337 whole entry): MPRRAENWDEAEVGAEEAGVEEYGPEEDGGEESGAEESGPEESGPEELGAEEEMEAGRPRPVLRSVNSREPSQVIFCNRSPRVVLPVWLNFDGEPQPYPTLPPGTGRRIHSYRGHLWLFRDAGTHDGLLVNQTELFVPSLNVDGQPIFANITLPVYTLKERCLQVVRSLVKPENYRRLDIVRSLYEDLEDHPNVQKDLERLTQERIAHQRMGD
Assay Remarks: Binding affinity to VHL (unknown origin) assessed as reduction of HIF1alpha derived peptide binding to VHL complex by competitive binding fluorescence polarization assay
Readout Label: Kd (nM)
The reply should contain only the number, in nM.

QUERY: Return Kd for the following molecule: Cc1ncsc1-c1ccc(CNC(=O)[C@@H]2C[C@@H](O)CN2C(=O)[C@@H](NC(=O)COCCOCCOCCOCCOc2cc3nccc(Nc4ccc5scnc5c4)c3cc2S(=O)(=O)C(C)(C)C)C(C)(C)C)cc1
RESULT: 500

Taken from ChEMBL document CHEMBL4024761.
